In this section, each of the compounds is paired with its reported IC50.
# SYSTEM TESTED: CDK2 (UniProt P24941)

* O=C(Cc1cccc2ccccc12)Nc1n[nH]c2ccc(N3CCCS3(=O)=O)cc12 | < 50 nM
* COc1ccc(N2CCN(CC(=O)Nc3n[nH]c4ccc(N5CCCS5(=O)=O)cc34)CC2)cc1 | < 10000 nM
* O=C(CN1CCN(c2ccccc2)CC1)Nc1n[nH]c2ccc(N3CCCS3(=O)=O)cc12 | < 500 nM

(Q) Param readout = IC50; param system = CDK2 (UniProt P24941); param query = `CCN(CC)c1ccc(CC(=O)Nc2n[nH]c3ccc(N4CCCS4(=O)=O)cc23)cc1` ; response: value
(A) < 50 nM

(Q) Param readout = IC50; param system = CDK2 (UniProt P24941); param query = `O=S1(=O)CCCN1c1ccc2[nH]nc(NC(Cc3ccccc3)=NO)c2c1` ; response: value
(A) < 10000 nM

* * *

pIC50: −log10 of the molar value.
Endpoint: pIC50. System: CDK2 (UniProt P24941). Items follow.

• O=C(Cn1cnc(-c2ccc3ccccc3c2)c1)Nc1n[nH]c2ccc(N3CCCS3(=O)=O)cc12 = > 7.30

(Q) Param readout = pIC50; param system = CDK2 (UniProt P24941); param query = `Cc1cccc(CC(=O)Nc2n[nH]c3ccc(N4CCCS4(=O)=O)cc23)c1` ; response: value
(A) > 7.30

(Q) Param readout = pIC50; param system = CDK2 (UniProt P24941); param query = `CC(C)c1ccc(CC(=O)Nc2n[nH]c3ccc(N4CCCS4(=O)=O)cc23)cc1` ; response: value
(A) > 7.30

(Q) Param readout = pIC50; param system = CDK2 (UniProt P24941); param query = `O=C(Cc1ccccc1)Nc1n[nH]c2ccc(N3CCCS3(=O)=O)cc12` ; response: value
(A) > 7.30

(Q) Param readout = pIC50; param system = CDK2 (UniProt P24941); param query = `O=C(Cc1ccc(-c2ccccc2)cc1)Nc1n[nH]c2ccc(N3CCCS3(=O)=O)cc12` ; response: value
(A) > 7.30

(Q) Param readout = pIC50; param system = CDK2 (UniProt P24941); param query = `CCNc1ccc(CC(=O)Nc2n[nH]c3ccc(N4CCCS4(=O)=O)cc23)cc1` ; response: value
(A) > 7.30

(Q) Param readout = pIC50; param system = CDK2 (UniProt P24941); param query = `O=C(Cc1ccc(CN2CCOCC2)cc1)Nc1n[nH]c2ccc(N3CCCS3(=O)=O)cc12` ; response: value
(A) > 7.00

(Q) Param readout = pIC50; param system = CDK2 (UniProt P24941); param query = `O=C(Cc1ccc(Cl)c(Cl)c1)Nc1n[nH]c2ccc(N3CCCS3(=O)=O)cc12` ; response: value
(A) > 7.30

(Q) Param readout = pIC50; param system = CDK2 (UniProt P24941); param query = `O=C(Cc1cccc([N+](=O)[O-])c1)Nc1n[nH]c2ccc(N3CCCS3(=O)=O)cc12` ; response: value
(A) > 7.30

(Q) Param readout = pIC50; param system = CDK2 (UniProt P24941); param query = `CC(=O)c1ccc(N2CCN(CC(=O)Nc3n[nH]c4ccc(N5CCCS5(=O)=O)cc34)CC2)cc1` ; response: value
(A) > 5.00

(Q) Param readout = pIC50; param system = CDK2 (UniProt P24941); param query = `CCOc1ccc(CC(=O)Nc2n[nH]c3ccc(N4CCCS4(=O)=O)cc23)cc1S(=O)(=O)N1CCOCC1` ; response: value
(A) > 6.00
